assay summary: Pharmacokinetic interaction study of DSV and TAM/TOH after oral single or co-administration to Wistar rats (UPLC-MS/MS of plasma, NCA)
Assay type: in vivo
condition description: male, Wistar, rat, plasma, po, oral co-administration of DSV 50 mg/kg and TAM 10 mg/kg (TOH as metabolite of TAM); mean ± SD, n = 5
measurement name: Tmax (h)

COc1c(-c2ccc3cc(NS(C)(=O)=O)ccc3c2)cc(-n2ccc(=O)[nH]c2=O)cc1C(C)(C)C	4.98

P. CC/C(=C(\c1ccccc1)c1ccc(OCCN(C)C)cc1)c1ccccc1
Q. CC/C(=C(\c1ccc(O)cc1)c1ccc(OCCN(C)C)cc1)c1ccccc1 [TOH, 4-hydroxy tamoxifen]
Data request: Which of the two items, P and Q , has the greater recorded Tmax? Write the label of whichever entry you select.
Data returned: Q
(Q: 5.03 h, P: 3.03 h)
